Source listed as ChEMBL document CHEMBL1133565.

Reported IC50 values are given for each entry in this list.
# tested.system: Sodium-dependent dopamine transporter (Homo sapiens, UniProt Q01959)
# Sequence (Q01959 whole entry): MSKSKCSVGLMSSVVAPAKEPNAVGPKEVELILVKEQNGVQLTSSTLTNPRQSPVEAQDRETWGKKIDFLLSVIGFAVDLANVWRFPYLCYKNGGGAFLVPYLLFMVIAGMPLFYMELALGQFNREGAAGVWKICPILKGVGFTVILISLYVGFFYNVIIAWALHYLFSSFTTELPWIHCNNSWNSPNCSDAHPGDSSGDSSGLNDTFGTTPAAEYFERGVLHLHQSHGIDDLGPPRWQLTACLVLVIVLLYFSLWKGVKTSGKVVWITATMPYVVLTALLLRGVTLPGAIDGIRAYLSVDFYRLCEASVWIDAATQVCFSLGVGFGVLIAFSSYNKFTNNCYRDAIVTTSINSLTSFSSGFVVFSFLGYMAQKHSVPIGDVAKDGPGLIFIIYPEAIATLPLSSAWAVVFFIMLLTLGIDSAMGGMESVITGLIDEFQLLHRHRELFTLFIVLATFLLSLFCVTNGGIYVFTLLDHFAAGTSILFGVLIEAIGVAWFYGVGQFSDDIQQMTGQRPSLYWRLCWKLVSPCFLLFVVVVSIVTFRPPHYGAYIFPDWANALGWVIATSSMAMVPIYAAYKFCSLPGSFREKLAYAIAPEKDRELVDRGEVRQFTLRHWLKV
# assay.procedure: Inhibition of reuptake of [3H]DA (20 nM) by dopamine transporter
Give the number; nM is assumed, so skip it.

Here is how some compounds turned out for IC50.
CN(Cc1ccccc1)[C@@H]1C[C@@H](c2ccc(Cl)c(Cl)c2)c2ccccc21 (relative stereo); 550
CCCN[C@@H]1C[C@@H](c2ccc(Cl)c(Cl)c2)c2ccccc21 (relative stereo); 53
CC(C)(C)N[C@@H]1C[C@@H](c2ccc(Cl)c(Cl)c2)c2ccccc21 (relative stereo); 370

Query: Could you share which IC50 value was measured for CCN[C@@H]1C[C@@H](c2ccc(Cl)c(Cl)c2)c2ccccc21 (relative stereo) ?
Response: 61

Query: Given the entry CN(C)[C@H]1C[C@@H](c2ccc(Cl)c(Cl)c2)c2ccccc21 (relative stereo) , report its measured IC50.
Response: 550

Query: # input compound: CCN(C)[C@H]1C[C@@H](c2ccc(Cl)c(Cl)c2)c2ccccc21 (relative stereo) ; wanted: its IC50
Response: 530

Query: I have this compound here, CN(C)[C@@H]1C[C@@H](c2ccc(Cl)c(Cl)c2)c2ccccc21.O=C(O)/C=C\C(=O)O (relative stereo) , and I need its recorded IC50.
Response: 200

Query: Any idea what IC50 was measured for CN(C)[C@@H]1C[C@@H](c2ccc(Cl)c(Cl)c2)c2ccccc21 (stereo in doubt; (+)) ?
Response: 120

Query: Consider the compound CCCN(C)[C@@H]1C[C@@H](c2ccc(Cl)c(Cl)c2)c2ccccc21 (relative stereo) and give its measured IC50.
Response: 340

Query: Any idea what IC50 was measured for `CCN[C@H]1C[C@@H](c2ccc(Cl)c(Cl)c2)c2ccccc21` ?
Response: 1000

----------
# tested.system: Sodium-dependent noradrenaline transporter (Homo sapiens, UniProt P23975)
# Sequence (P23975 whole entry): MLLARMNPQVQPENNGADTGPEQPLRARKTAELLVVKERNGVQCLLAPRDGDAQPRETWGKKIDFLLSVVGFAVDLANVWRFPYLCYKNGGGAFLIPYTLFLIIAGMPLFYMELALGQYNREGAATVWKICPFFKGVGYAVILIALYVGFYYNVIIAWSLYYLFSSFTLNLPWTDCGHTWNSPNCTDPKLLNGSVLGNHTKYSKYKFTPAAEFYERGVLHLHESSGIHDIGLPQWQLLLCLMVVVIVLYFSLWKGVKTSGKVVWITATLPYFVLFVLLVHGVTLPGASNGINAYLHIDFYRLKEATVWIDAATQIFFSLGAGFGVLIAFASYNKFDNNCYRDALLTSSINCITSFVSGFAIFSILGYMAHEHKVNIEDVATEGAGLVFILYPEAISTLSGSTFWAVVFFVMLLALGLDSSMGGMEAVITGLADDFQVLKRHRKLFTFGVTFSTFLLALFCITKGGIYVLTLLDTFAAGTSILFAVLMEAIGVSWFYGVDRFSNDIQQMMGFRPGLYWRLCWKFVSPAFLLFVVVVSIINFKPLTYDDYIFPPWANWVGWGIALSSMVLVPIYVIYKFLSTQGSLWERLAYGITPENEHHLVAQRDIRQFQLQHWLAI
# assay.procedure: Binding affinity against norepinephrine cloned human transporter using 40-80 pM [125I]RTI
This listing pairs compounds with measured pKi.
When answering, recall that pKi equals minus log10 of the concentration in mol/L, and write that number alone.

Below, each entry is followed by its recorded pKi result.
CN(Cc1ccccc1)[C@@H]1C[C@@H](c2ccc(Cl)c(Cl)c2)c2ccccc21 (relative stereo); 5.55
CCCN[C@@H]1C[C@@H](c2ccc(Cl)c(Cl)c2)c2ccccc21 (relative stereo); 7.26
CN(C)[C@@H]1C[C@@H](c2ccc(Cl)c(Cl)c2)c2ccccc21 (stereo in doubt; (-)); 6.89

Query: So what does the record say about pKi for `CC(C)N(C)[C@H]1C[C@@H](c2ccc(Cl)c(Cl)c2)c2ccccc21` ?
Response: 6.19

Query: State the recorded pKi for this entry: Clc1ccc([C@@H]2C[C@H](NCc3ccccc3)c3ccccc32)cc1Cl (relative stereo)
Response: 5.32

Query: Look up pKi: CCN(C)[C@H]1C[C@@H](c2ccc(Cl)c(Cl)c2)c2ccccc21 (relative stereo)
Response: 5.62

Query: For the compound shown here, CC(C)(C)N[C@H]1C[C@@H](c2ccc(Cl)c(Cl)c2)c2ccccc21 (relative stereo) , give the reported pKi.
Response: 5.96

Query: State the recorded pKi for this entry: CC(C)N[C@H]1C[C@@H](c2ccc(Cl)c(Cl)c2)c2ccccc21 (relative stereo)
Response: 5.46

Query: Using the record for CN(C)[C@H]1C[C@@H](c2ccc(Cl)c(Cl)c2)c2ccccc21 (relative stereo) , report its pKi.
Response: 6.82

Query: Item under review: CN([C@@H]1C[C@@H](c2ccc(Cl)c(Cl)c2)c2ccccc21)C(C)(C)C (relative stereo) . Reported pKi?
Response: 6.36

Query: Which pKi reading was recorded for the compound CCN(C)[C@@H]1C[C@@H](c2ccc(Cl)c(Cl)c2)c2ccccc21 (relative stereo) ?
Response: 6.60

----------
Let's look at some molecules and their measured Ratio.
# tested.system: Sodium-dependent dopamine transporter (Homo sapiens, UniProt Q01959)
# assay.procedure: Ratio of dopamine uptake to dopamine binding
Just the number.

Clc1ccc([C@@H]2C[C@@H](NCc3ccccc3)c3ccccc32)cc1Cl (relative stereo); 1.6

Query: Return reported Ratio; argument: CN(C)[C@@H]1C[C@@H](c2ccc(Cl)c(Cl)c2)c2ccccc21 (stereo in doubt; (+))
Response: 14

Query: Sample CN(C)[C@H]1C[C@@H](c2ccc(Cl)c(Cl)c2)c2ccccc21 (relative stereo) — what was its Ratio?
Response: 8.7

Query: Tell me the measured Ratio of CCN[C@@H]1C[C@@H](c2ccc(Cl)c(Cl)c2)c2ccccc21 (relative stereo) , please.
Response: 7.5

Query: Dear colleague, I am looking for the recorded Ratio of the following molecule: CC(C)(C)N[C@H]1C[C@@H](c2ccc(Cl)c(Cl)c2)c2ccccc21 (relative stereo)
Response: 2.3

Query: Fill in the blank: the reported Ratio of `CC(C)N(C)[C@H]1C[C@@H](c2ccc(Cl)c(Cl)c2)c2ccccc21` is ____.
Response: 1.4

Query: Would you kindly share the measured Ratio for `CC(C)N(C)[C@@H]1C[C@@H](c2ccc(Cl)c(Cl)c2)c2ccccc21` ?
Response: 1.1

Query: # Ratio lookup, item CCN(C)[C@@H]1C[C@@H](c2ccc(Cl)c(Cl)c2)c2ccccc21 (relative stereo)
Response: 6.9

Query: Endpoint output: Ratio of CN(C)[C@@H]1C[C@@H](c2ccc(Cl)c(Cl)c2)c2ccccc21 (stereo in doubt; (-)) . Value?
Response: 17

Query: # get_value(readout='Ratio', item= `CCN[C@H]1C[C@@H](c2ccc(Cl)c(Cl)c2)c2ccccc21` )
Response: 11

Query: What does the data say about its Ratio? Entry: CC(C)(C)N[C@@H]1C[C@@H](c2ccc(Cl)c(Cl)c2)c2ccccc21 (relative stereo)
Response: 2.8

Query: Consider the molecule shown here: `CC(C)N[C@@H]1C[C@@H](c2ccc(Cl)c(Cl)c2)c2ccccc21` What is its recorded Ratio?
Response: 1.6

Query: Ratio; subject: CCN(C)[C@H]1C[C@@H](c2ccc(Cl)c(Cl)c2)c2ccccc21 (relative stereo)
Response: 0.8

Query: What value of Ratio has been reported for the following molecule? CCCN[C@@H]1C[C@@H](c2ccc(Cl)c(Cl)c2)c2ccccc21 (relative stereo)
Response: 0.24

----------
# pIC50 values compiled below
# tested.system: Sodium-dependent serotonin transporter (Homo sapiens)
# Sequence (P31645 whole entry): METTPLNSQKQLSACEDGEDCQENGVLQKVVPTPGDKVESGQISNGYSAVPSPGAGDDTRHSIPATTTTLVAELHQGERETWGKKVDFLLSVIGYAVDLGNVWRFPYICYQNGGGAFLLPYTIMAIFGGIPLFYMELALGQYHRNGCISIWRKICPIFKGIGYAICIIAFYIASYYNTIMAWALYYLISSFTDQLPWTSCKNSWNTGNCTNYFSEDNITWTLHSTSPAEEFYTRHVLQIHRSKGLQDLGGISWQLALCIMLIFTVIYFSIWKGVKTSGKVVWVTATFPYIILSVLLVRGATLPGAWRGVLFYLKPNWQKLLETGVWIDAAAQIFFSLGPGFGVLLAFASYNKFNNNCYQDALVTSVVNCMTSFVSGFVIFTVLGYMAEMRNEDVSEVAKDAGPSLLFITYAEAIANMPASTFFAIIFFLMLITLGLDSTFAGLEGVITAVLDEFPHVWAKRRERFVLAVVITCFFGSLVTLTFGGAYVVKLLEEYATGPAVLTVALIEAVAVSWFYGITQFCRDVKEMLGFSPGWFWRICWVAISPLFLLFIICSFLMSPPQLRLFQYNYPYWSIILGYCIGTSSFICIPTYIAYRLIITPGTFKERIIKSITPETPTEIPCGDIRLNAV
# assay.procedure: Inhibition of reuptake of [3H]5-HT (20 nM) by serotonin transporter
Quick note: pIC50 means taking -log10 of the concentration in moles per liter.

Check out these entries, answers already filled in.
CC(C)N(C)[C@H]1C[C@@H](c2ccc(Cl)c(Cl)c2)c2ccccc21; 5.74
CCN[C@@H]1C[C@@H](c2ccc(Cl)c(Cl)c2)c2ccccc21 (relative stereo); 7.89
CCCN[C@H]1C[C@@H](c2ccc(Cl)c(Cl)c2)c2ccccc21 (relative stereo); 5.89
CCCN(C)[C@H]1C[C@@H](c2ccc(Cl)c(Cl)c2)c2ccccc21 (relative stereo); 6.09
CCN(C)[C@@H]1C[C@@H](c2ccc(Cl)c(Cl)c2)c2ccccc21 (relative stereo); 7.62

Query: Any idea what pIC50 was measured for CN(C)[C@@H]1C[C@@H](c2ccc(Cl)c(Cl)c2)c2ccccc21 (stereo in doubt; (-)) ?
Response: 6.89

Query: Could you tell me which pIC50 is on file for `CC(C)N[C@@H]1C[C@@H](c2ccc(Cl)c(Cl)c2)c2ccccc21` ?
Response: 6.62

Query: Could you tell me which pIC50 is on file for CCN(C)[C@H]1C[C@@H](c2ccc(Cl)c(Cl)c2)c2ccccc21 (relative stereo) ?
Response: 7.14

Query: Could you share which pIC50 value was measured for `CCN[C@H]1C[C@@H](c2ccc(Cl)c(Cl)c2)c2ccccc21` ?
Response: 7.72

Query: I am curious: what pIC50 value has been reported for `CC(C)N(C)[C@@H]1C[C@@H](c2ccc(Cl)c(Cl)c2)c2ccccc21` ?
Response: 5.82

Query: Report pIC50 for CN(C)[C@@H]1C[C@@H](c2ccc(Cl)c(Cl)c2)c2ccccc21.O=C(O)/C=C\C(=O)O (relative stereo) please.
Response: 7.19

Query: I am curious: what pIC50 value has been reported for CC(C)N[C@H]1C[C@@H](c2ccc(Cl)c(Cl)c2)c2ccccc21 (relative stereo) ?
Response: 6.52

----------
Observed pKi values for Sodium-dependent dopamine transporter (Homo sapiens, UniProt Q01959) are listed in what follows.
Quick note: pKi values are minus log10 of concentrations in mol/L.

Solved entries:
Clc1ccc([C@@H]2C[C@@H](NCc3ccccc3)c3ccccc32)cc1Cl (relative stereo); 7.10
CN([C@@H]1C[C@@H](c2ccc(Cl)c(Cl)c2)c2ccccc21)C(C)(C)C (relative stereo); 6.05

Query: Record `CC(C)N(C)[C@H]1C[C@@H](c2ccc(Cl)c(Cl)c2)c2ccccc21` : what is its pKi with Sodium-dependent dopamine transporter (Homo sapiens, UniProt Q01959)?
Response: 6.17

Query: GET /values?readout=pKi&system=Sodium-dependent dopamine transporter (Homo sapiens, UniProt Q01959)&item= CCN(C)[C@H]1C[C@@H](c2ccc(Cl)c(Cl)c2)c2ccccc21 (relative stereo)
Response: 6.18

Query: Lab note: need pKi for CN(C)[C@H]1C[C@@H](c2ccc(Cl)c(Cl)c2)c2ccccc21 (relative stereo) on Sodium-dependent dopamine transporter (Homo sapiens, UniProt Q01959), anyone have it?
Response: 7.20

Query: What measured pKi is associated with `CCN[C@H]1C[C@@H](c2ccc(Cl)c(Cl)c2)c2ccccc21` on Sodium-dependent dopamine transporter (Homo sapiens, UniProt Q01959)?
Response: 6.85

Query: Field: pKi (Sodium-dependent dopamine transporter (Homo sapiens, UniProt Q01959)). Entry: CN(C)[C@@H]1C[C@@H](c2ccc(Cl)c(Cl)c2)c2ccccc21.O=C(O)/C=C\C(=O)O (relative stereo)
Response: 7.72

Query: Identify the measured pKi of CC(C)(C)N[C@H]1C[C@@H](c2ccc(Cl)c(Cl)c2)c2ccccc21 (relative stereo) for Sodium-dependent dopamine transporter (Homo sapiens, UniProt Q01959).
Response: 6.19
